Test: growth effects on S. cerevisiae YJM789 – YJM789 clinical isolate, OD600, 24 h, basal, primary screen (AID 1089);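 further: growth of clinical yeast isolate S. cerevisiae YJM 789 seeded 1000 cells per well; test concentration not given here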
Conditions: higher = more signal, called active from +8 up or from −8 down
Decision: z-score compared against 0.5; not below it gives YES, below it gives NO.

>  <COMPOUND>
C=CC[C@@]12N=C(c3ccc(OCCCO)cc3)O[C@@H]1c1ccccc1N(CCC)C2=O

>  <DISCRETE_LABEL>
NO

$$$$
>  <COMPOUND>
C=CCOC(=O)[C@H]1[C@@H]2C(=O)O[C@@H](c3ccccc3)[C@@H](c3ccccc3)N2[C@@H](c2ccc(OCCOC(=O)[C@H]3C[C@H]4C(=O)N[C@@H](CC(C)C)C(=O)N4[C@H]3c3ccc(O)cc3)cc2)[C@]12C(=O)Nc1ccccc12

>  <DISCRETE_LABEL>
YES

$$$$
>  <COMPOUND>
COCCOC(=O)N1C(=O)[C@@]2(c3cc(C#CCCO)ccc31)[C@H](c1ccccc1OCCO)N1[C@H](c3ccccc3)[C@H](c3ccccc3)OC(=O)[C@H]1[C@@H]2C(N)=O

>  <DISCRETE_LABEL>
YES

$$$$
>  <COMPOUND>
CC(C)C(=C=CC[C@H](O)c1ccccc1OCCO)C[C@H](O)c1cc(Cl)cc(Cl)c1O

>  <DISCRETE_LABEL>
NO

$$$$
>  <COMPOUND>
C[N+](C)(C)CCCC[C@@H]1NC(=O)[C@@H]2C[C@H](C(=O)NCc3ccc(F)cc3)[C@H](c3ccc(O)cc3)N2C1=O

>  <DISCRETE_LABEL>
NO

$$$$
>  <COMPOUND>
CN1C(=O)C2C(C1=O)C1C=C(c3ccc(CO)cc3)C2C(C2CC2)N1C (stereo unspecified)

>  <DISCRETE_LABEL>
YES

$$$$
>  <COMPOUND>
CCCCCCc1nc(Cc2cc(OC)c(OC)c(OC)c2)cc2c1[Si](C(C)C)(C(C)C)O[C@H]2c1ccccc1

>  <DISCRETE_LABEL>
NO

$$$$
>  <COMPOUND>
NC(=O)NCC#Cc1ccc2c(c1)[C@]1(C(=O)N2)[C@H](c2ccc(OCCO)cc2)N2[C@H](c3ccccc3)[C@H](c3ccccc3)OC(=O)[C@H]2[C@@H]1C(=O)O

>  <DISCRETE_LABEL>
NO

$$$$
>  <COMPOUND>
COCCOC(=O)N1C(=O)[C@@]2(c3ccccc31)[C@H](C(=O)N1CCN(c3ncccn3)CC1)[C@H]1C(=O)O[C@H](c3ccccc3)[C@H](c3ccccc3)N1[C@@H]2c1ccccc1OCCO

>  <DISCRETE_LABEL>
YES

$$$$
>  <COMPOUND>
C[C@]1(C(=O)O)c2ccccc2C(=O)N(Cc2cc(F)cc(C(F)(F)F)c2)[C@H]1c1ccc(CO)cc1

>  <DISCRETE_LABEL>
NO

$$$$

###

Listed next: entries and their corresponding composite z-score.
Target: Calmodulin-1 (Homo sapiens) (UniProt P0DP23)
Test: small molecules binding calmodulin-1 with EGTA – biochemical, small-molecule microarray, Cy5-labelled CALM1, profiling panel (AID 1111);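 further: labelled calmodulin applied in Tris saline Tween buffer holding calcium plus EGTA and DTT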
Conditions: Cy5-CALM1 binding fluorescence, higher = more signal

>  <COMPOUND>
COCCCNC(=O)[C@@H]1c2ccccc2C(=O)N(Cc2ccc(OC(F)(F)F)cc2)[C@H]1c1ccc(CO)cc1

>  <composite z-score>
0.0389

$$$$
>  <COMPOUND>
CCCC=C(CCC)[C@@H](NC(=O)OCC(C)C)c1ccc(C(=O)OC)cc1

>  <composite z-score>
0.059

$$$$
>  <COMPOUND>
CN1C(=O)C2C(C1=O)C1C=C(CCCO)C2C(C2CC2)N1Cc1cccc(OC(F)(F)F)c1 (configuration not stated)

>  <composite z-score>
0.807

$$$$
>  <COMPOUND>
CC[C@@H]1C=C(C(=O)O)[C@H](c2ccc(OC)cc2)N1S(=O)(=O)c1ccc(C)cc1

>  <composite z-score>
0.15

$$$$
>  <COMPOUND>
COc1ccc(NN2C(C(O)c3ccc(I)cc3)C=CC3C(=O)N(C4CCCCC4)C(=O)C32)cc1 (configuration not stated)

>  <composite z-score>
1.21

$$$$
>  <COMPOUND>
CO[C@H]1O[C@H](CO)[C@@H](OC(=O)Nc2ccccc2-c2ccccc2)[C@H](OC(=O)Nc2ccccc2)[C@H]1OC(=O)Nc1ccccc1

>  <composite z-score>
1.27

$$$$
>  <COMPOUND>
O=C(NCCN1CCOCC1)[C@@H]1c2ccccc2C(=O)N(Cc2ccc(OC(F)(F)F)cc2)[C@H]1c1ccc(CO)cc1

>  <composite z-score>
0.749

$$$$

###

System: Neuregulin-1 EGF-like domain
Assay: small molecules binding NRG1 EGF domain – biochemical, small-molecule microarray, 635 nm fluorescence, primary screen (AID 1081);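 further: binding of the protein to compounds printed on small-molecule microarray slides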
Details: higher = more signal

>  <COMPOUND>
COc1ccc([Si](C)(C)[C@H]2[C@H](CCO)O[C@@]3(C(=O)N(Cc4cccc(N(C=O)c5ccccc5)c4)c4ccccc43)[C@@H]2C)cc1

>  <composite z-score>
1.08

$$$$
>  <COMPOUND>
O=C(O)[C@H](Cc1ccccc1)n1cc(C2(O)CCCCC2)nn1

>  <composite z-score>
0.993

$$$$
>  <COMPOUND>
COC(=O)[C@@]1(Cc2ccc(F)cc2)[C@H]2c3cc(C(=O)N4CCCC4)n(CCc4ccccn4)c3C[C@H]2CN1C(=O)c1ccccc1

>  <composite z-score>
1.4

$$$$
>  <COMPOUND>
COc1cc(OC)c(C(O)C2C=CC3C(=O)N(c4ccccc4)C(=O)C3N2Nc2ccc(C(C)C)cc2)cc1Br (stereo not given)

>  <composite z-score>
1.28

$$$$
>  <COMPOUND>
CC1CC/C=C\[C@H]2OC34C=CCN(Cc5ccccc5)C(=O)[C@H]3N(CCCCCCO)C(=O)[C@@H]4C2C(=O)O1 (stereo not given in full)

>  <composite z-score>
1.19

$$$$
>  <COMPOUND>
CCOC(=O)C[C@H]1[C@H](OC(=O)c2cc3ccccc3oc2=O)[C@@H](NC(=O)CC(C)C)c2cc(OCCCO)ccc2N1C(=O)Cc1ccc(OC)cc1

>  <composite z-score>
0.49

$$$$
>  <COMPOUND>
COC(=O)[C@H](Cc1ccccc1)N1CC2=CCCC=C[C@@H]2[C@H]1[C@H](O)Cc1ccccc1

>  <composite z-score>
0.667

$$$$
>  <COMPOUND>
COc1cc(C(O)C2C=CC3C(=O)N(c4ccccc4)C(=O)C3N2Nc2ccccc2F)cc(OC)c1OC (stereo not given)

>  <composite z-score>
1.29

$$$$
>  <COMPOUND>
CC(C)NC(=O)[C@@H]1c2ccccc2C(=O)N(Cc2ccc(OC(F)(F)F)cc2)[C@H]1c1ccc(CO)cc1

>  <composite z-score>
1

$$$$
>  <COMPOUND>
CN(C)CCCCNC(=O)[C@H]1C[C@H]2C(=O)NCC(=O)N2[C@H]1c1ccc(O)cc1

>  <composite z-score>
1.07

$$$$
>  <COMPOUND>
COCCOC(=O)N1C(=O)[C@@]2(c3cc(C#CCCO)ccc31)[C@H](c1ccc(OCCO)cc1)N1[C@H](c3ccccc3)[C@H](c3ccccc3)OC(=O)[C@H]1[C@@H]2C(=O)N1CCCCCCC1

>  <composite z-score>
1.16

$$$$
>  <COMPOUND>
O=C1N(CCS(=O)(=O)c2ccccc2)c2ccccc2C[C@]12N=C(c1ccc(OCCCO)cc1)O[C@@H]2c1ccccc1

>  <composite z-score>
1.23

$$$$
>  <COMPOUND>
O=C1N(Cc2ccccc2)c2ccccc2C[C@@]12COC(c1ccc(OCCCO)cc1)=N2

>  <composite z-score>
1.23

$$$$
>  <COMPOUND>
CC(C)C[C@@H]1NC(=O)[C@@H]2C[C@H](C(=O)NCCCCCCNC(=O)CS)[C@H](c3cccc(OCCO)c3)N2C1=O

>  <composite z-score>
1.39

$$$$
>  <COMPOUND>
COCCOC(=O)N1C(=O)[C@@]2(c3cc(C#Cc4ccc(OC)cc4)ccc31)[C@H](c1ccc(OCCO)cc1)N1[C@H](c3ccccc3)[C@H](c3ccccc3)OC(=O)[C@H]1[C@@H]2C(=O)NC[C@H](O)c1ccccc1

>  <composite z-score>
1.2

$$$$
>  <COMPOUND>
C=C(COC)C(=O)CC[C@@H](OC(C)=O)c1ccccc1OCCO

>  <composite z-score>
0.326

$$$$
>  <COMPOUND>
COc1ccc(C(O)C2C=CC3C(=O)N(C)C(=O)C3N2N(c2ccccc2)c2ccccc2)cc1 (stereo not given)

>  <composite z-score>
1.22

$$$$
>  <COMPOUND>
C=C(COC)C(=O)CC[C@@H](OC(=O)c1ccccc1-c1ccccc1C(=O)O)c1ccc(OCCO)cc1

>  <composite z-score>
0.685

$$$$
>  <COMPOUND>
COc1ccc([Si](C)(C)[C@H]2[C@H](CCO)O[C@@]3(C(=O)N(Cc4cccc(N5C(=O)c6ccccc6Oc6ccccc65)c4)c4ccccc43)[C@@H]2C)cc1

>  <composite z-score>
1.02

$$$$
>  <COMPOUND>
O=C(NC1CC1)[C@@H]1c2ccccc2C(=O)N(Cc2cc(C(F)(F)F)cc(C(F)(F)F)c2)[C@H]1c1ccc(CO)cc1

>  <composite z-score>
1.36

$$$$
